- System: BT-549 breast
- protocol.text: NCI-60 one-dose screen, 48 h (100 = growth as untreated, 0 = no growth, -100 = all killed)
- condition.notes: 10 µM unless noted
Compounds without any hit were thinned out: in the full panel of roughly 83,000, 20% have a hit.
Hi! Could you tag entries with growth below 90% as true (1), and those at or above as false (0)? Much appreciated.

Check out these entries, answers already filled in.
1. CC(C)(C)OC(=O)N1CC(Cn2cc(C(F)(F)F)c3c(Cl)ncnc32)C1 | true (1)
2. O=C(Nc1ccc(-n2cc(-c3ccncc3)c(-c3ccc(O)c(Cl)c3)n2)cc1)c1cc(Cl)cc(Cl)c1 | true (1)
3. O=[N+]([O-])c1ccc(NS(=O)(=O)c2ccccc2)c2ccccc12 | true (1)
4. O=C1CCC(=O)N1C1CCCCC1 | false (0)
5. COC1=C(OC)C(=O)C=CC1=O | false (0)

Threshold test, growth < 90%: CC(=O)N1N=C2N(Cc3ccccc3)C(=O)c3c(sc4c3CCCC4)N2C1c1cn(-c2ccccc2)nc1-c1ccc(Cl)cc1 (centres undefined)
false (0)

Threshold test, growth < 90%: "C=CCn1c(SCC(=O)Nc2ccc(/C(C)=N\O)cc2)nnc1-c1cc(-c2ccc(OC)cc2)nc2ccccc12"
true (1)

Threshold test, growth < 90%: "CS(=O)(=O)OCC(COS(C)(=O)=O)C(c1ccccc1)c1ccccc1"
false (0)

Threshold test, growth < 90%: "Cc1nc(-c2ccc(Cl)cc2)ccc1NC(=O)Nc1cccc(C(F)(F)F)c1"
false (0)

###

- Test system: IGROV1 ovarian
- protocol.text: NCI-60 one-dose screen, 48 h (100 = growth as untreated, 0 = no growth, -100 = all killed)
- condition.notes: 10 µM unless noted
The panel holds about 83,000 compounds, 20% with a hit somewhere; the sample as a whole holds those more often.
recorded.metric: growth (%)
The reply should contain only the number, in %.

1. COc1ccc(-n2c(-c3ccc(NC(=O)CCCl)cc3)nnc2-c2cc(OC)c(OC)c(OC)c2)cc1 | 42.4

Query "O=C(NCCNc1nccc(-c2c(-c3cccc(O)c3)nc3sccn23)n1)c1cc(N2CCOCC2)cc(C(F)(F)F)c1" yields growth of 80.4

Query "CC[C@@]1(O)C(=O)OCc2c1cc1n(c2=O)Cc2c-1nc1ccccc1c2/C=N/OC(C)(C)C" yields growth of 8.28

###

- Test system: KM12 colon
- protocol.text: NCI-60 one-dose screen, 48 h
- condition.notes: 10 µM unless noted
This is part of a sample that, as a whole, favours compounds with a hit. Of some 83,000 tested, about 20% had one in any assay. Active and inactive are the calls of the source. Rule for the calls: active = growth percent below 10; inactive = the rest.
# valid calls are 1 = active, -1 = inactive; nothing else

Check out these entries, answers already filled in.
1. Oc1ccccc1/C=N/c1ccccn1 | -1
2. Nc1ncnc2c1ncn2C1OC(COC(c2ccccc2)(c2ccccc2)c2ccccc2)C(O)C1O (stereo unspecified) | -1
3. CSc1ccc(C(=O)C[n+]2cccc(C)c2)cc1 | -1
4. NCC(=O)NS(=O)(=O)OC[C@H]1O[C@@H](n2cnc3c(N)ncnc32)[C@H](O)[C@@H]1O | 1
5. Cc1cn(C2CC(N=[N+]=[N-])C(COP(=O)(O)OP(=O)(O)OP(=O)(O)O)O2)c(=O)[nH]c1=O (stereo unspecified) | -1

Hi, do you know how "ClC1c2ccccc2CCc2ccccc21" came out in this test?
-1

Hi, do you know how "Cc1nc(-c2ccc(Cl)cc2)ccc1NC(=O)Nc1cccc(C(F)(F)F)c1" came out in this test?
-1

Hi, do you know how "Cc1cccc(CC(=O)c2ccccc2)n1" came out in this test?
-1

Hi, do you know how "O=C(Nc1ccc(-n2ccc3c(NC(=O)c4ccccc4)ncnc32)cc1)Nc1cccc(Cl)c1Cl" came out in this test?
-1

Hi, do you know how "Clc1ccc(CN2COc3c(ccc4cccnc34)C2)cc1Cl" came out in this test?
1
